B1: CD207 (parent)
chain: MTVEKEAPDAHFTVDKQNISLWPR

Variants of: B1
protocol.description: protein stability index of a GFP-peptide fusion (GPS, HEK-293T) (PSI 1-6); higher = more stable;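 further: lentivirally expressed fusions sorted by FACS into six bins by GFP to DsRed ratio, PSI derived from sequencing read proportions per bin multiplied by bin number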
test.parameters: c terminus: a fixed tail appended
endpoint.name: protein stability index
// print number alone

- variant.identifier: "S20R"
  protein stability index: 3.3
- variant.identifier: "D15T"
  protein stability index: 2.74
- variant.identifier: "V14P"
  protein stability index: 3.79
- variant.identifier: "H11R"
  protein stability index: 2.79
- variant.identifier: "R24K"
  protein stability index: 3.87
- variant.identifier: "T13R"
  protein stability index: 2.66

[ask] Recorded protein stability index for `D9G` , please?
[reply] 3.05

[ask] Recorded protein stability index for `F12I` , please?
[reply] 3.96

[ask] Recorded protein stability index for `E6R` , please?
[reply] 2.74
